assay: label from the status in PepcDB records

{"columns": ["RESIDUE CODES", "protein production"],
 "data": [
  ["MQTINATEIRNNFSYYIDTVVRDKPIAVKRNRDVLLFFSEQIIKDLLQDLKIHAELSKEDGIIIGTIDGFDLVVSGESEQEVIQKLAEDLLEYAQDYMNDFKLFYNAPNRKTHYPYILKVLLSSNIDEVKGYIYAEMV", "not failed"],
  ["MNTTPFPALSAETLLAVNTVGQWLAQNDFSGEQPYSSDCVVLAGNAVIPTIDAACRIAKAQGVPLLISGGIGHSTPFLYAVIARHPRYHTIRTSGRAEAAILADIANQFWHIPAEKIWLEDRSTNCGENARFSCALIRQAKENINTAIVVQDPTMQRRTIAAFRRVTNDDTDAPRWLSFPGFVPVLRHLNDGTRFANVEEGIWTVERYLSLIAGELPRLRDDETGYGPRGKDFIIHVDIPRDIENAWQVLQADTTLRSALGQRALRLEHHHHHH", "not failed"]
]}
